test: melting temperature; fluorescence melt of hairpins on a sequencing array, two-state fit, raised by 9.35 °C to match UV melts; conditions: sodium 0.088 M
PROPERTY NAME: Tm (°C)
// units = °C; emit number, no label

Use the examples below as a reference point.
> print(dat)
                                   chain  unit.abbreviation  obs.value
1  GGAGACGAAAGTCTATCC ((((((....)))..)))                 °C       32.8
2  GCACATACGAAAGTATGC (((..(((....))))))                 °C       35.4
3  GCTTGGGGAAACCCAAGC (((((((....)))))))                 °C       68.3
4  GGAGGCGAAAGCCACTCC ((((((....)))..)))                 °C       42.6
5  GCAGCGCGAAAGCCCGGC ((.(.((....)).).))                 °C       39.3

Okay, now this sequence:
Sample GCGTGGGGAAACCCGCGC (((.(((....))).))) ; Tm observed: 69

###

Each item that follows carries a reported folding enthalpy.
test: folding enthalpy; higher = less favourable; fluorescence melt of hairpins on a sequencing array, two-state fit; conditions: sodium 0.088 M
// units = kcal/mol; emit number, no label

Use the examples below as a reference point.
> print(dat)
                                   chain     property.name  obs.value
1  GTATATGGAAACATGTAC (((.(((....))).)))  folding enthalpy      -29.6
2  GTGCTAGCGAAAGCTCAC (((..(((....))))))  folding enthalpy      -9.59
3  GGTTGAGCGAAAGCTACC (((..(((....))))))  folding enthalpy      -13.1
4  GGTAAGCCGAAAGGCACC (((..(((....))))))  folding enthalpy      -15.4
5  GCTGCAGGAAACTACAGC ((((.((....)).))))  folding enthalpy      -33.9

Okay, now this sequence:
Sample GATCTCGGCGGAGATC ((((((....)))))) ; folding enthalpy observed: -48.8

###

test: folding enthalpy; higher = less favourable; fluorescence melt of hairpins on a sequencing array, two-state fit; conditions: sodium 0.088 M
Each item that follows carries a reported folding enthalpy.
// units = kcal/mol; emit number, no label

> print(dat)
                                   chain  unit.abbreviation  obs.value
1  GCACGGCGAAAGCCAAGC ((..(((....)))..))           kcal/mol      -15.4
2    GAGTACGAAAGTACCTC ((((((....))).)))           kcal/mol      -14.5
3  GCTCCGCGAAAGCAGCGC ((.(.((....)).).))           kcal/mol      -17.1
4          ACTGGGAAACCAGT (((((....)))))           kcal/mol      -15.9
5  GTGCGCGGAAACGTGCGC (.((.((....)).)).)           kcal/mol      -25.9

Sample TTGGTGAAAACCAA (((((....))))) ; folding enthalpy observed: -15.8

Sample GCTGCACCGAAAGGTAGC (((..(((....)))))) ; folding enthalpy observed: -13.4

Sample GGAGGCTCGAAAGAGTCC (((..(((....)))))) ; folding enthalpy observed: -14.4

Sample GATCAAACTTTTGATC ((((((....)))))) ; folding enthalpy observed: -27.9

Sample GATCGACGCTCGATC ((((((...)))))) ; folding enthalpy observed: -41.3

###

Each item that follows carries a reported Tm.
test: melting temperature; fluorescence melt of hairpins on a sequencing array, two-state fit, raised by 9.35 °C to match UV melts; conditions: sodium 0.088 M
// units = °C; emit number, no label

Sample GCCGTCGGAAACGGTGGC (((..((....))..))) ; Tm observed: 51.3

###

assay: melting temperature; fluorescence melt of hairpins on a sequencing array, two-state fit, raised by 9.35 °C to match UV melts; settings: sodium 0.088 M
Each item that follows carries a reported Tm.
// units = °C; emit number, no label

> print(dat)
                                   chain  unit.abbreviation  obs.value
1  GTAACCGGAAACGGTCAC ((.((((....)))).))                 °C       39.7
2  GCAGCGGGAAACCGCTAC (.(((((....))))).)                 °C       40.2
3  GATTGCGGAAACGTGATC (((..((....))..)))                 °C       40.7

Okay, now this sequence:
Sample GGATAGGGAAACCCATCC ((((.((....)).)))) ; Tm observed: 39.8

###

test: melting temperature; fluorescence melt of hairpins on a sequencing array, two-state fit, raised by 9.35 °C to match UV melts; details: sodium 0.088 M
Returns one of fulfilled or not fulfilled; fulfilled when Tm is >= 40 °C.

> print(dat)
                               chain  discrete.label
1  GATCCTCGACAGGATC ((((((....))))))       fulfilled
2  GATCCTATTGAGGATC ((((((....))))))       fulfilled

Ask: Exam item: decide whether the reported Tm for CACTTGAAAAAGTG (((((....))))) is at least 40 °C.
Result: fulfilled

Ask: Exam item: decide whether the reported Tm for GCGGCGACCGC ((((...)))) is at least 40 °C.
Result: fulfilled

Ask: Exam item: decide whether the reported Tm for GGCGTGGCGAAAGCCGCC (((..(((....)))))) is at least 40 °C.
Result: fulfilled

Ask: Exam item: decide whether the reported Tm for GGCGATACGAAAGTAGCC (((..(((....)))))) is at least 40 °C.
Result: fulfilled

Ask: Exam item: decide whether the reported Tm for GTGCTAACGAAAGTTCAC (((..(((....)))))) is at least 40 °C.
Result: not fulfilled

###

test: melting temperature; fluorescence melt of hairpins on a sequencing array, two-state fit, raised by 9.35 °C to match UV melts; settings: sodium 0.088 M
Each item that follows carries a reported Tm.
// units = °C; emit number, no label

Use the examples below as a reference point.
> print(dat)
                                   chain  property.name  obs.value
1  GCCGTGGGAAACCACAGC ((.((((....)))).))             Tm       49.4
2  GAGCCGGGAAACCGACTC (((.(((....))).)))             Tm       49.5
3  GACTTGGGAAACCGAGTC ((((.((....)).))))             Tm       49.5
4  GTATGGGGAAACTCATAC (((((.(....).)))))             Tm       40.5
5          ATGTGGAAACACAT (((((....)))))             Tm       46.1

Sample CGGCCGGAAACGGTTCCG ((((((....)))..))) ; Tm observed: 41.1

Sample ACCGTGAAAACGGT (((((....))))) ; Tm observed: 55.4

Sample GTTCCAGAAATGGAAC ((((((....)))))) ; Tm observed: 53.4

Sample GGTGACCCGAAAGGGACC (((..(((....)))))) ; Tm observed: 38.1

Sample GACAGGGGAAACCCTGCC (.(((((....))))).) ; Tm observed: 46.4

Sample GGTATGCGAAAGCAACC (((.(((....)))))) ; Tm observed: 47.7

###

experiment: melting temperature; fluorescence melt of hairpins on a sequencing array, two-state fit, raised by 9.35 °C to match UV melts; settings: sodium 0.088 M
PROPERTY NAME: Tm (°C)
// units = °C; emit number, no label

> print(dat)
                                   chain  obs.value
1  GCTATGCGAAAGCACAGC (((.(((....))).)))       48.7
2  GCACAGCGAAAGCCTTGC (((..((....))..)))         39
3      GATCCAACTGTGGATC ((((((....))))))       49.1

Okay, now this sequence:
Sample GCATGTGGAAACGTATGC ((((..(....)..)))) ; Tm observed: 41
